Entry source: the MegaScale stability set (Tsuboyama et al. 2023)

B1: HEEH_KT_rd6_3546 (parent)
chain: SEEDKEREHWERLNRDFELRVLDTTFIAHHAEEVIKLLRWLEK

- Variants of: B1
- ASSAY EXPLANATION: folding stability dG (cDNA display proteolysis); higher = more stable
- MEASUREMENT CONDITIONS: PBS, room temperature
# cutoff 1 kcal/mol applies to folding stability dG; >= gives true, < gives false

These solved cases illustrate the format of a correct answer.
> print(dat)
                           sequence.content  class
1  SEEDKEREHWERLNRDFELRVLDTTFIAHHAEECIKLLRWLEK [V34C]   true
2  SEEDMEREHWERLNRDFELRVLDTTFIAHHAEEVIKLLRWLEK [K5M]   true

Enquiry: Check the entry SEEDKERQHWERLNRDFELRVLDTTFIAHHAEEVIKLLRWLEK [E8Q] : does folding stability dG equal or exceed 1 kcal/mol?
Return: true

Enquiry: Is folding stability dG at least 1 kcal/mol? Consider SEEDKEREHTERLNRDFELRVLDTTFIAHHAEEVIKLLRWLEK [W10T]
Return: true

Enquiry: Reported folding stability dG reaches at least 1 kcal/mol for SEEDKTREHWERLNRDFELRVLDTTFIAHHAEEVIKLLRWLEK [E6T] ?
Return: true

Enquiry: Determine whether this variant has folding stability dG no lower than 1 kcal/mol: SEEDKEREHWERLNRDFELRVLDTTFIAHHMEEVIKLLRWLEK [A31M]
Return: true

Enquiry: Identify whether the reported folding stability dG of the following variant is 1 kcal/mol or greater: SEEDKEREHWERLNRDFELRVLDTTFIAHHAEEVILLLRWLEK [K36L]
Return: true

Enquiry: Entry SEEDKEREHWERLNRDFELRVLDTTFIAHHAREVIKLLRWLEK [E32R] : is its folding stability dG no less than 1 kcal/mol?
Return: true
